Data credit: PubChem BioAssay (NCI)

Below is a list of entries, each paired with its recorded TGI value.
Tested on: SW-620 colon
Assay: NCI tumour cell line growth inhibition, 48 h

- smiles input: "Cc1csc2nc(-c3cccc([N+](=O)[O-])c3)c(/C=N/N=C(N)N)n12"
  comparison sign: "="
  TGI / µM: 2.98
- smiles input: "O=c1[nH]c2nc3ccccc3c(=O)n2/c1=C/c1ccccc1"
  comparison sign: "="
  TGI / µM: 47.6
- smiles input: "Cc1c(-c2ccccc2)c(C#N)c2nnn(-c3ccc(Cl)cc3)c(=O)n12"
  comparison sign: ">"
  TGI / µM: 100
- smiles input: "CCCCCCCCCCCCCCCCc1c(C(=O)OC)nc(NC#N)[nH]c1=O"
  comparison sign: ">"
  TGI / µM: 25
- smiles input: "Cn1cnc([N+](=O)[O-])c1Sc1n[nH]c(-c2ccc(Cl)cc2)n1"
  comparison sign: "="
  TGI / µM: 78

---

Below is a list of entries, each paired with its recorded TGI value.
Tested on: SF-539 CNS
Assay: NCI tumour cell line growth inhibition, 48 h

- compound: "Cn1cnc([N+](=O)[O-])c1Sc1n[nH]c(-c2ccc(Cl)cc2)n1"
  tested system: "SF-539 CNS"
  TGI: "29.9 µM"
- compound: "COc1ccc(OC2(c3cc(OC)ccc3OC)OC(=O)c3ccccc32)cc1 (stereo unspecified)"
  tested system: "SF-539 CNS"
  TGI: "> 100 µM"
- compound: "COc1cc2c3c(n(CCCN=[N+]=[N-])c(=O)c2cc1OC)-c1ccc([N+](=O)[O-])cc1C3=O"
  tested system: "SF-539 CNS"
  TGI: "> 100 µM"
- compound: "COc1cccc(C2=NC(C(C)C)CO2)c1OC (stereo unspecified)"
  tested system: "SF-539 CNS"
  TGI: "> 100 µM"
- compound: "Cc1ccc(/C(=N/NS(=O)(=O)c2cc(C)c(Cl)cc2Cl)Sc2cc(Cl)c(C)cc2S(N)(=O)=O)cc1"
  tested system: "SF-539 CNS"
  TGI: "> 100 µM"
- compound: "CN1CCc2ccccc2C1Cc1ccccc1NC(=O)c1sc2ccccc2c1Cl (stereo unspecified)"
  tested system: "SF-539 CNS"
  TGI: "> 100 µM"
- compound: "O=C(C[C@@H]1CCCN2CCCC[C@H]12)N1c2ccccc2Sc2ccc(Cl)cc21"
  tested system: "SF-539 CNS"
  TGI: "32.1 µM"
- compound: "O=C(N/C(=C\\c1ccccc1)c1nc2ccccc2c(=O)o1)c1ccccc1"
  tested system: "SF-539 CNS"
  TGI: "> 100 µM"
- compound: "Clc1cc(Br)ccc1-c1ccc(CNCC2CCNCC2)o1"
  tested system: "SF-539 CNS"
  TGI: "3.17 µM"
- compound: "NC1CCN(c2nc3ccccc3c3c2CCCC3)CC1"
  tested system: "SF-539 CNS"
  TGI: "11.8 µM"
- compound: "COc1cc2c(/C=C3\\C(=O)N(C)c4ccccc43)c[nH]c2cc1C"
  tested system: "SF-539 CNS"
  TGI: "> 31.2 µM"

---

Tested on: MCF7 breast
Assay: NCI tumour cell line growth inhibition, 48 h
Below is a list of entries, each paired with its recorded log10(TGI) value.
readout: log10(TGI) (log10 of the value in µM)

- compound: "CCCCCCOC(=O)CC1=C(C)/C(=C/c2[nH]c(-c3ccc[nH]3)cc2OC)N=C1C"
  tested system: "MCF7 breast"
  log10(TGI): 0.14
- compound: "CCOC(=O)C1=C(C(=O)OCC)SC2(S1)C(C(=O)OCC)=C(C(=O)OCC)Sc1c2ssc1=O"
  tested system: "MCF7 breast"
  log10(TGI): 0.54
- compound: "NC(=O)c1cn(C2CC(O)C(CO)O2)c2ncnc(N)c12 (stereo not given)"
  tested system: "MCF7 breast"
  log10(TGI): 1.14
- compound: "COC(=O)CCc1n(Cc2ccc3ccccc3c2)c2ccccc2[n+]1Cc1ccc2ccccc2c1"
  tested system: "MCF7 breast"
  log10(TGI): 0.37
- compound: "c1ccc(/C(=N\\Nc2nc3ccccc3[nH]2)c2ccccn2)cc1"
  tested system: "MCF7 breast"
  log10(TGI): 0.74

---

Test system: RXF 393 renal
Experiment: NCI tumour cell line growth inhibition, 48 h; in the data active = GI50 below about 0.43 µM; inactive = the rest
Classes used: T (active), F (inactive)

- compound: "COc1ccc(C2c3ccc4ccccc4c3Oc3ncn(CCCn4ccnc4)c(=N)c32)cc1OC (stereo not given)"
  tested system: "RXF 393 renal"
  class assignment: "F"
- compound: "CN1CCN(C)C1c1ccc(C2N(C)CCN2C)cc1"
  tested system: "RXF 393 renal"
  class assignment: "F"
- compound: "COc1cccc2c1C(=O)c1c(O)c3c(c(O)c1C2=O)C[C@](O)(C(=O)CO)C[C@H]3O[C@@H]1C[C@@H](NC(=O)CCCN(C)C2(c3ccc(F)cc3)CC3CCC2C3)[C@H](O)[C@@H](C)O1 (stereo not given in full)"
  tested system: "RXF 393 renal"
  class assignment: "F"
- compound: "COc1ccc(Sc2[nH]c(C=O)c3ccccc23)cc1"
  tested system: "RXF 393 renal"
  class assignment: "F"
- compound: "CCCCCCCCCCCCCCCCn1cc[n+](C)c1"
  tested system: "RXF 393 renal"
  class assignment: "T"
- compound: "COc1cc2c3c(n(CCCN=[N+]=[N-])c(=O)c2cc1OC)-c1ccc([N+](=O)[O-])cc1C3=O"
  tested system: "RXF 393 renal"
  class assignment: "F"
- compound: "COc1cc2c3c(n(CCCN=[N+]=[N-])c(=O)c2cc1OC)-c1ccc(F)cc1C3=O"
  tested system: "RXF 393 renal"
  class assignment: "F"
- compound: "Cc1[nH]c2ccccc2c1CO"
  tested system: "RXF 393 renal"
  class assignment: "F"
- compound: "CCCCN(CCCC)P(=O)(Oc1ccccc1)Oc1ccccc1"
  tested system: "RXF 393 renal"
  class assignment: "F"
- compound: "COc1cc(OC)c(C(=O)/C=C/c2ccc(C#N)cc2)c(OC)c1"
  tested system: "RXF 393 renal"
  class assignment: "F"

---

Tested on: OVCAR-5 ovarian
Assay: NCI tumour cell line growth inhibition, 48 h

- compound: "O=S(O)O.O=S(O)O.[Co].[NH2-].[NH2-].[NH2-].[NH2-]"
  GI50: "> 100 µM"
- compound: "O=C(Nc1ccc(I)cc1F)c1cc(Br)ccc1O"
  GI50: "4.01 µM"
- compound: "COc1cccc2c1C(=O)c1c(O)c3c(c(O)c1C2=O)C[C@](O)(C(=O)CO)C[C@H]3O[C@@H]1C[C@@H](NC(=O)CCCN(C)C2(c3ccc(F)cc3)CC3CCC2C3)[C@H](O)[C@@H](C)O1 (stereo not given in full)"
  GI50: "0.863 µM"
- compound: "O=C(COc1ccccc1)NNc1ccccc1"
  GI50: "144 µM"
- compound: "COc1cccc(/C=N\\NC(=O)c2ccncc2)c1O"
  GI50: "12.9 µM"
- compound: "Cn1cnc([N+](=O)[O-])c1S(=O)(=O)Oc1ccc(Cl)cc1"
  GI50: "15.6 µM"
- compound: "COC(=O)CCc1n(Cc2ccc3ccccc3c2)c2ccccc2[n+]1Cc1ccc2ccccc2c1"
  GI50: "1.18 µM"
- compound: "c1cc(OCCN2CCCC2)ccc1CNc1ccc2nc(CCC3CCCCC3)[nH]c2c1"
  GI50: "2.19 µM"
- compound: "N#Cc1c(N)nc2c(c1-c1ccc(Cl)cc1)COc1ccc(F)cc1-2"
  GI50: "27.5 µM"
- compound: "Cc1ccc(/C(=N/NS(=O)(=O)c2cc(C)c(Cl)cc2Cl)Sc2cc(Cl)c(C)cc2S(N)(=O)=O)cc1"
  GI50: "> 100 µM"

---

System: NCI-H460 lung
Classes used: Y = active, N = inactive

- compound: "COc1cccc(S(=O)(=O)NC2=NCCN2C(=S)SN2CCn3c2nsc3=S)c1"
  tested system: "NCI-H460 lung"
  class assignment: "N"
- compound: "CCCCCN(CCCCC)CCC[C@@H](C)[C@H]1CC[C@H]2[C@@H]3[C@H](OCCCN)C[C@@H]4C[C@H](OCCCN)CC[C@]4(C)[C@H]3C[C@H](OCCCN)[C@]12C"
  tested system: "NCI-H460 lung"
  class assignment: "N"
- compound: "CC(C)CCN(CCC(C)C)CC(=O)Nc1ccc(S(=O)(=O)c2ccc(NC(=O)CN(CCC(C)C)CCC(C)C)cc2)cc1"
  tested system: "NCI-H460 lung"
  class assignment: "N"
- compound: "CCOC(=O)c1c(NN2CCN(CC(F)(F)F)CC2)oc(/C=C2\\C=Nc3ncccc32)c1O"
  tested system: "NCI-H460 lung"
  class assignment: "N"
- compound: "O=C1CN=C(c2ccc[nH]2)c2cc(Cl)ccc2N1"
  tested system: "NCI-H460 lung"
  class assignment: "N"
- compound: "Clc1cc(Br)ccc1-c1ccc(CNCC2CCNCC2)o1"
  tested system: "NCI-H460 lung"
  class assignment: "N"
- compound: "Clc1ccc(-c2cnc3c(-c4ccnc(N5CCNCC5)c4)cnn3c2)cc1"
  tested system: "NCI-H460 lung"
  class assignment: "N"
- compound: "COc1cc(OC)c(C(=O)/C=C/c2ccc(C#N)cc2)c(OC)c1"
  tested system: "NCI-H460 lung"
  class assignment: "N"
- compound: "CC[C@]12CN3CCc4c([nH]c5ccccc45)[C@@](C(=O)OC)(c4cc5c(cc4OC)N(C)[C@H]4[C@@](O)(C(=O)OC)[C@H](OC(C)=O)[C@]6(CC)C=CCN7CC[C@]54[C@@H]76)CC(C3)[C@H]1O2 (some centres undefined)"
  tested system: "NCI-H460 lung"
  class assignment: "Y"
